B1: SNX8 (parent)
chain: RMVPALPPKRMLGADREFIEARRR

Variants of: B1
Assay: protein stability index of a GFP-peptide fusion (GPS, HEK-293T) (PSI 1-6); higher = more stable;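 further: lentivirally expressed fusions sorted by FACS into six bins by GFP to DsRed ratio, PSI derived from sequencing read proportions per bin multiplied by bin number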
Settings: c terminus: a fixed tail appended
Label rule, in plain words: protein stability index of 3 and up is criterion met, under 3 is criterion not met.

mutation_label	class_label
R24F	criterion met
K9T	criterion met
G13M	criterion not met
G13D	criterion met
A5R	criterion met
